Overview of recorded pIC50 for various compounds
tested on: DU-145; assay: cells; type: functional, cell-based; conditions: Homo sapiens, DU-145, 72 h
On this scale, pIC50 is minus log10 of a concentration expressed in M (mol/L).

INSERT INTO assay_data (compound, observed_result) VALUES
  ('Cc1ccc(OS(=O)(=O)C2CC3OC2C(c2ccc(NC(=O)CCCCCCC(=O)O)cc2)=C3c2ccc(O)cc2)cc1 (racemic)', 4.09),
  ('COC(=O)CCCCCCC(=O)Nc1cccc(OS(=O)(=O)C2CC3OC2C(c2ccc(O)cc2)=C3c2ccc(O)cc2)c1 (stereo not given)', 4.71),
  ('O=C(CCCCCCC(=O)Nc1ccc(C2=C(c3ccc(O)cc3)C3CC(S(=O)(=O)Oc4ccccc4)C2O3)cc1)NO (racemic)', 4.42),
  ('O=C(CCCCCCC(=O)Nc1ccc(C2=C(c3ccc(O)cc3)C3CC(S(=O)(=O)Oc4cccc5ccccc45)C2O3)cc1)NO (racemic)', 5.07),
  ('O=C(O)CCCCCCC(=O)Nc1ccc(C2=C(c3ccc(O)cc3)C3CC(S(=O)(=O)Oc4ccccc4O)C2O3)cc1 (racemic)', 4.56);

Turning now to a further record.
Challenge: Which pIC50 is listed for COc1ccccc1OS(=O)(=O)C1CC2OC1C(c1ccc(NC(=O)CCCCCCC(=O)NO)cc1)=C2c1ccc(O)cc1 (racemic) ?
Response given: 4.35
